System: HB3
Assay: qHTS profiling for inhibitors of Plasmodium falciparum proliferation (AID 504749); note: nearly all actives have a fitted effect of over 60% in size
Details: P. falciparum in erythrocytes, SYBR Green DNA, 72 h; series mostly up to 28.7 µM
Records with an inconclusive call do not appear. Calls of active or inactive are those of the source. Calls come from the whole dose curve; as a rule, active = well fitted inhibition curve with a large enough effect; inconclusive = small, poorly fitted or top-dose-only effect; inactive = flat fitted curve, though single readings scatter.
Bench note: report the call from active, inactive

# count of solved cases: 4
[
  {
    "COMPOUND": "CC(=O)N(O)CCCCCNC(=O)CCC(=O)N(O)CCCCCNC(=O)CCC(=O)N(O)CCCCCN",
    "CLASS": "inactive"
  },
  {
    "COMPOUND": "CCCCOc1ccc(OCCCN2CCOCC2)cc1",
    "CLASS": "inactive"
  },
  {
    "COMPOUND": "C[C@H](O)C(=O)Nc1c(I)c(C(=O)NC(CO)CO)c(I)c(C(=O)NC(CO)CO)c1I",
    "CLASS": "inactive"
  },
  {
    "COMPOUND": "CCN(CC)C(=O)/C(C#N)=C/c1cc(O)c(O)c([N+](=O)[O-])c1",
    "CLASS": "inactive"
  }
]

In this assay, the call recorded for CC(C)(C)CC(C)(C)c1ccc(OCCOCC[N+](C)(C)Cc2ccccc2)cc1 was what?
active

In this assay, the call recorded for O=C(O)c1cc2cc(Cc3cccnc3)ccc2o1 was what?
inactive

In this assay, the call recorded for CC(C)COC(=O)OCN1C(=O)CN(CCN2CC(=O)N(COC(=O)OCC(C)C)C(=O)C2)CC1=O was what?
inactive

In this assay, the call recorded for C[C@]12CC[C@@H]3c4ccc(O)cc4CC[C@H]3[C@@H]1CC[C@@H]2O was what?
inactive

In this assay, the call recorded for C[C@H]1[C@H](NC(=O)/C(=N/OC(C)(C)C(=O)O)c2csc(N)n2)C(=O)N1S(=O)(=O)O (stereo in doubt) was what?
inactive

In this assay, the call recorded for COc1cc(-c2ccc(=O)[nH]n2)ccc1OC(F)F was what?
inactive

In this assay, the call recorded for CC(Cc1cccc(C(F)(F)F)c1)NCCOC(=O)c1ccccc1 (stereo not given) was what?
inactive

In this assay, the call recorded for CCN(CC)CCNC(=O)COc1ccc(Cl)cc1 was what?
inactive
